Origin of values: patent US20190359693A1

Molecular target: hemagglutinin (HA) of influenza B/Lee/40 (Old) (influenza B virus) (UniProt P03460)
Sequence (P03460 16-584 limits assumed): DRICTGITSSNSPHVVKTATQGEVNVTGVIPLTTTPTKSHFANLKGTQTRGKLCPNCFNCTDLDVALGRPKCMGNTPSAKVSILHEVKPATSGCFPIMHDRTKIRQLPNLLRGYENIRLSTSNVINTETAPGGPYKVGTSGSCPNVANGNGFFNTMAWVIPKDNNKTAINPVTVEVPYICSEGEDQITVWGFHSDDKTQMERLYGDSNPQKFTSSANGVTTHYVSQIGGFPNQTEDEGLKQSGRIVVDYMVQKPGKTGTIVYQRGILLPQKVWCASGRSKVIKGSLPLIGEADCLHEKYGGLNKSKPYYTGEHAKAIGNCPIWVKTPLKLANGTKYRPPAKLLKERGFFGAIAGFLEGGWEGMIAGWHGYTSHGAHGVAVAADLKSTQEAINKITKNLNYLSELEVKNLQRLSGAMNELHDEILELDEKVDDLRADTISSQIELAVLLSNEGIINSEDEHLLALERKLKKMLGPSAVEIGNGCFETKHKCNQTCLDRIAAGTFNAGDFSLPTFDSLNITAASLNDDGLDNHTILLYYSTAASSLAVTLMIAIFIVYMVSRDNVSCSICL
Assay: cell-based or functional assay
Listed below: VNA IC50 values for each entry.

{"binder": "SD3071 (VHH) VHH: EVQLVESGGGLVQPGGSLRLSCAISGLSLDTYAVGWFRQAPGKEREGITCISSGHGLTYYADSVKGRFTVSTDNSKNTLYLQMNSLRAEDTAVYYCATESRYYCSDNWPAPQRYIYWGQGTLVTVSS", "VNA IC50": "> 1000 nM"}
{"binder": "SD3104 (VHH) VHH: EVQLVESGGGLVQPGGSLRLSCAISGLSLDTYAVGWFRQAPGKEREGVSCISSGHGNTYYADSVKGRFTISTDNSKNTLYLQMNSLRAEDTAVYYCATESRYYCSDNWPAPQRYIYWGQGTLVTVSS", "VNA IC50": "> 1000 nM"}
{"binder": "SD3092 (VHH) VHH: EVQLVESGGGLVQPGGSLRLSCAISGLSLDTYAVGWFRQAPGKEREGVSCISSGHGMTYYADSVKGRFTISTDNSKNTLYLQMNSLRAEDTAVYYCATESRYYCSDNWPAPQRYIYWGQGTLVTVSS", "VNA IC50": "40 nM"}
{"binder": "SD3070 (VHH) VHH: EVQLVESGGGLVQPGGSLRLSCAISGLSLDTYAVGWFRQAPGKEREGITCISSGHGITYYADSVKGRFTVSTDNSKNTLYLQMNSLRAEDTAVYYCATESRYYCSDNWPAPQRYIYWGQGTLVTVSS", "VNA IC50": "> 1000 nM"}
{"binder": "SD3076 (VHH) VHH: EVQLVESGGGLVQPGGSLRLSCAASGLSLDTYAVGWFRQAPGKEREGVSCISSGHGLTYYADSVKGRFTISTDNSKNTLYLQMNSLRAEDTAVYYCATESRYYCSDNWPAPQRYIYWGQGTLVTVSS", "VNA IC50": "> 1000 nM"}
{"binder": "SD3074 (VHH) VHH: EVQLVESGGGLVQPGGSLRLSCAISGLSLDTYAVGWFRQAPGKEREGITCISSGHGMTYYADSVKGRFTISTDNSKNTLYLQMNSLRAEDTAVYYCATESRYYCSDNWPAPQRYIYWGQGTLVTVSS", "VNA IC50": "42 nM"}
{"binder": "SD3072 (VHH) VHH: EVQLVESGGGLVQPGGSLRLSCAASGLSLDTYAVGWFRQAPGKEREGITCISSGHGMTYYADSVKGRFTVSTDNSKNTLYLQMNSLRAEDTAVYYCATESRYYCSDNWPAPQRYIYWGQGTLVTVSS", "VNA IC50": "318 nM"}
{"binder": "SD3012 (VHH) VHH: EVQLLESGGGLVQPGGSLRLSCAASGFTLENKAIGWFRQAPGKEREGVLCISKSGSWTYYADSVKGRFTISRDNSKNTVYLQMNSLRPEDTAVYYCATTTAGGGLCWDGTTFSRLASSWGQGTQVTVSS", "VNA IC50": "60 nM"}
{"binder": "SD3075 (VHH) VHH: EVQLVESGGGLVQPGGSLRLSCAASGLSLDTYAVGWFRQAPGKEREGVSCISSGHGITYYADSVKGRFTISTDNSKNTLYLQMNSLRAEDTAVYYCATESRYYCSDNWPAPQRYIYWGQGTLVTVSS", "VNA IC50": "> 1000 nM"}
{"binder": "SD3102 (VHH) VHH: EVQLVESGGGLVQPGGSLRLSCAISGLSLDTYAVGWFRQAPGKEREGVSCISSGHGQTYYADSVKGRFTISTDNSKNTLYLQMNSLRAEDTAVYYCATESRYYCSDNWPAPQRYIYWGQGTLVTVSS", "VNA IC50": "> 1000 nM"}
